Target system: Norovirus 3CL^pro (Norovirus GII.4, UniProt P54634)
Sequence (P54634 1009-1189): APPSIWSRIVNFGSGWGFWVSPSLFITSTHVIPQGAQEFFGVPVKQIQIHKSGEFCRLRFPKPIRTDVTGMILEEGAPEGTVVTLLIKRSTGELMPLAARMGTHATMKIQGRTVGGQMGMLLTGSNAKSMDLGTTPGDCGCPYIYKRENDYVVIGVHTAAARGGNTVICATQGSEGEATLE
Assay protocol: Cell-based FlipGFP assay of 3CLpro inhibition
Parameters: species or system Norovirus genotype GII.4
Reported values of IC50 for individual entries
Please reply with the bare figure in nM and do not write the unit itself.

Per the reported Norovirus 3CL^pro (Norovirus GII.4, UniProt P54634) data, CCc1cc(Nc2nccc(-c3c(-c4ccc(OC)c(C(=O)Nc5c(F)cccc5F)c4)nc4ccccn34)n2)c(OC)cc1N1CCC(N2CCN(S(C)(=O)=O)CC2)CC1 [GSK1904529A] has IC50 of 3940

Per the reported Norovirus 3CL^pro (Norovirus GII.4, UniProt P54634) data, CC(=O)N1CCC(c2cc(-c3ccc(NC(=O)c4cccn(-c5ccc(F)cc5)c4=O)cc3F)c3c(N)ncnn23)CC1 [TAM-IN-2] has IC50 of 1220

Per the reported Norovirus 3CL^pro (Norovirus GII.4, UniProt P54634) data, O=c1[nH]c2ccccc2n1C1CCN(Cc2ccc(-c3[nH]c4cc5ncnc5cc4nc3-c3ccccc3)cc2)CC1 [Akt inhibitor VIII] has IC50 of 590

Per the reported Norovirus 3CL^pro (Norovirus GII.4, UniProt P54634) data, N#Cc1ccc(O[C@H]2CC[C@H](NC(=O)c3ccc(N4CCC(CN5CCN(c6cc7c(cc6F)C(=O)N(C6CCC(=O)NC6=O)C7=O)CC5)CC4)nn3)CC2)cc1Cl (stereo partly drawn) [Bavdegalutamide] has IC50 of 970

Per the reported Norovirus 3CL^pro (Norovirus GII.4, UniProt P54634) data, O=C(Nc1cccc(-c2nc(-c3ccc(NC(=O)c4cccnc4)cc3Cl)no2)c1)Nc1ccc(NC(=O)C2CC2)c(C(F)(F)F)c1 [EGFR-IN-8] has IC50 of 290

Per the reported Norovirus 3CL^pro (Norovirus GII.4, UniProt P54634) data, O=C(c1ccc(Nc2nccc(-c3cc4ccccc4s3)n2)cc1)N1CCC(N2CCCC2)CC1 [IKK 16] has IC50 of 5090
